methodDescription: Solubility study of naltrexone and methylphenidate in common solvents and household items (visual examination)
Format: physicochemical
settings: xylene, organic solvent or mixture, thermodynamic from solid; read-out: Solubility
Description: The solubility of naltrexone and methylphenidate was evaluated in various commonly available solvents and household items, including water, cola soft drinks, ethanol, vinegar, nail polish remover, toluene, turpentine, and baking soda solution (see Table 1). The solubility results were determined by visual examination of each solution after warming and several hours of mixing. The solubility results are presented below in Table 1.
Structures can show the parent of a compound that is named as a salt.
propertyMeasured: solubility

compound="COC(=O)C(c1ccccc1)C1CCCCN1 (centres unmarked) [Methylphenidate HCl]" datavalue="< 100 µg/mL"
compound="O=C1CC[C@@]2(O)[C@H]3Cc4ccc(O)c5c4[C@@]2(CCN3CC2CC2)[C@H]1O5 [Naltrexone HCl]" datavalue="< 100 µg/mL"

###

methodDescription: Solubility study of naltrexone and methylphenidate in common solvents and household items (visual examination)
Assay type: physicochemical
settings: water, thermodynamic from solid; read-out: Solubility
Where a name gives a salt, the structure may show the parent alone.
propertyMeasured: solubility

compound="COC(=O)C(c1ccccc1)C1CCCCN1 (centres unmarked) [Methylphenidate HCl]" propertymeasured=solubility datavalue="> 1000 µg/mL"
compound="O=C1CC[C@@]2(O)[C@H]3Cc4ccc(O)c5c4[C@@]2(CCN3CC2CC2)[C@H]1O5 [Naltrexone HCl]" propertymeasured=solubility datavalue="> 1000 µg/mL"

###

methodDescription: Solubility study of naltrexone and methylphenidate in common solvents and household items (visual examination)
Type: physicochemical
settings: DMF, organic solvent or mixture, thermodynamic from solid; read-out: Solubility
Counter-ions that a name gives are not always drawn.
Listed here: items and their measured solubility.
propertyMeasured: solubility

molecule="COC(=O)C(c1ccccc1)C1CCCCN1 (centres unmarked) [Methylphenidate HCl]" datavalue="> 1000 µg/mL"
molecule="O=C1CC[C@@]2(O)[C@H]3Cc4ccc(O)c5c4[C@@]2(CCN3CC2CC2)[C@H]1O5 [Naltrexone HCl]" datavalue="> 1000 µg/mL"

###

methodDescription: Solubility study of naltrexone and methylphenidate in common solvents and household items (visual examination)
Format: physicochemical
settings: methyl ethyl ketone, organic solvent or mixture, thermodynamic from solid; read-out: Solubility
Where a name gives a salt, the structure may show the parent alone.
propertyMeasured: solubility

compound="O=C1CC[C@@]2(O)[C@H]3Cc4ccc(O)c5c4[C@@]2(CCN3CC2CC2)[C@H]1O5 [Naltrexone HCl]" datavalue="< 100 µg/mL"
compound="COC(=O)C(c1ccccc1)C1CCCCN1 (centres unmarked) [Methylphenidate HCl]" datavalue="500 to 1000 µg/mL"
